Assay: Cytotoxicity against human IGROV-ET cells after 48 hrs by SRB assay
Format: functional
Conditions: read-out: LC50 (the source's name)
Readout label: CC50 (nM)
Give your result in nM as a bare value.

Below, 5 compounds whose answers are already recorded.
C/C=C1\NC(=O)[C@H](Cc2ccccc2)NC(=O)[C@@H](C(C)C)NC(=O)[C@@H]([C@H](C)CC)NC(=O)[C@H](NC(=O)[C@H](NC(=O)[C@H](CCCN)NC(=O)[C@H]2CCCN2C(=O)[C@H](NC(=O)[C@@H](NC(=O)[C@@H](NC(=O)[C@H]2CCCN2C(=O)CCCC(C)C)[C@@H](C)O)C(C)C)C(C)C)[C@H](C)CC)[C@H](C)OC(=O)[C@H](C(C)C)NC1=O | 426
C/C=C1\NC(=O)[C@H](Cc2ccccc2)NC(=O)[C@@H](C(C)C)NC(=O)[C@@H]([C@H](C)CC)NC(=O)[C@H](NC(=O)[C@H](NC(=O)[C@H](CCCN)NC(=O)[C@H]2CCCN2C(=O)[C@H](NC(=O)[C@@H](NC(=O)[C@H](CC(C)C)NC(=O)[C@H](NC(=O)CCCC(C)C)C(C)C)C(C)C)C(C)C)[C@H](C)CC)[C@H](C)OC(=O)[C@H](C(C)C)NC1=O | 538
C/C=C1\NC(=O)[C@H](Cc2ccccc2)NC(=O)[C@@H](C(C)C)NC(=O)[C@@H]([C@H](C)CC)NC(=O)[C@H](NC(=O)[C@H](NC(=O)[C@H](CCCN)NC(=O)[C@H]2CCCN2C(=O)[C@H](NC(=O)CNC(=O)[C@@H](NC(=O)[C@H](NC(=O)CCCC(C)C)C(C)C)[C@@H](C)O)C(C)C)[C@H](C)CC)[C@H](C)OC(=O)[C@H](C(C)C)NC1=O | 722
C/C=C1\NC(=O)[C@H](Cc2ccccc2)NC(=O)[C@@H](C(C)C)NC(=O)[C@@H]([C@H](C)CC)NC(=O)[C@H](NC(=O)[C@H](NC(=O)[C@H](CCCN)NC(=O)[C@H]2CCCN2C(=O)[C@H](NC(=O)[C@@H](NC(=O)[C@@H](NC(=O)[C@H](NC(=O)CCCNC(=N)N)C(C)C)[C@@H](C)O)C(C)C)C(C)C)[C@H](C)CC)[C@H](C)OC(=O)[C@H](C(C)C)NC1=O | 695
C/C=C1\NC(=O)[C@H](Cc2ccccc2)NC(=O)[C@@H](C(C)C)NC(=O)[C@@H]([C@H](C)CC)NC(=O)[C@H](NC(=O)[C@H](NC(=O)[C@H](CCCN)NC(=O)[C@H]2CCCN2C(=O)[C@H](NC(=O)[C@@H](NC(=O)[C@@H](NC(=O)[C@@H](CC2CCCCC2)NC(=O)CCCC(C)C)[C@@H](C)O)C(C)C)C(C)C)[C@H](C)CC)[C@H](C)OC(=O)[C@H](C(C)C)NC1=O | 373

Query compound follows.
# lookup: CC50 of C/C=C1\NC(=O)[C@H](Cc2ccccc2)NC(=O)[C@@H](C(C)C)NC(=O)[C@@H]([C@H](C)CC)NC(=O)[C@H](NC(=O)[C@H](NC(=O)[C@H](CCCN)NC(=O)[C@H]2CCCN2C(=O)[C@H](NC(=O)[C@H](CCC(=O)O)NC(=O)[C@@H](NC(=O)[C@H](NC(=O)CCCC(C)C)C(C)C)[C@@H](C)O)C(C)C)[C@H](C)CC)[C@H](C)OC(=O)[C@H](C(C)C)NC1=O 632
